Values from paper PMC8287531

Molecular target: T1, talin R7R8 rod domains (UniProt Q9Y490 1359-1659)
T1 construct: Talin R7R8 rod domains; the construct used in the assays is not described in the methods
T1 sequence (Q9Y490 1359-1659): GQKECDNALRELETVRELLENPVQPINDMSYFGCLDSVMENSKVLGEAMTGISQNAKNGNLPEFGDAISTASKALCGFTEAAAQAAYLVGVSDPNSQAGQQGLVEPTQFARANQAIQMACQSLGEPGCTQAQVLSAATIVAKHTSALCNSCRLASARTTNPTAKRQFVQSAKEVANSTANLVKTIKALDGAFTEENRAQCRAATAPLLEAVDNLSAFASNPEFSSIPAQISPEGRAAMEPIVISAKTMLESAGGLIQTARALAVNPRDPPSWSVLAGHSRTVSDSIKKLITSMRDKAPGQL
Assay: fluorescence polarisation; serial dilution of protein against 100 nM fluorescein- or BODIPY-TMR-coupled peptide; 20°C; one-site total binding equation; triplicate
Details: both partners purified
parameter: Kd (nM)
Respond with the bare value in nM.

Prompt: Annotate the binder PYFVETPYGFQLDLDFVKYVDDIQKGNTIKKC (BODIPY-labeled, KANK1 KN domain LD motif, residues 30-60; added C-terminal cysteine residue; also called KANK1 KN domain LD motif (residues 30-60); source: synthetic peptide (GLBiochem, Shanghai)) [KANK1(30-60) peptide, KN domain LD motif, BODIPY-labeled] with its measured Kd.
Response: 350
